Reference source: patent US9096591B2

Would you mind telling me the reported inhibition at 1 µM of each entry?
target entity: Serotonin (5-Hydroxytryptamine) 5-HT7 (Homo sapiens)
Construct: expressed in transfected cells; host or cells: CHO cells
Sequence (P34969 whole entry): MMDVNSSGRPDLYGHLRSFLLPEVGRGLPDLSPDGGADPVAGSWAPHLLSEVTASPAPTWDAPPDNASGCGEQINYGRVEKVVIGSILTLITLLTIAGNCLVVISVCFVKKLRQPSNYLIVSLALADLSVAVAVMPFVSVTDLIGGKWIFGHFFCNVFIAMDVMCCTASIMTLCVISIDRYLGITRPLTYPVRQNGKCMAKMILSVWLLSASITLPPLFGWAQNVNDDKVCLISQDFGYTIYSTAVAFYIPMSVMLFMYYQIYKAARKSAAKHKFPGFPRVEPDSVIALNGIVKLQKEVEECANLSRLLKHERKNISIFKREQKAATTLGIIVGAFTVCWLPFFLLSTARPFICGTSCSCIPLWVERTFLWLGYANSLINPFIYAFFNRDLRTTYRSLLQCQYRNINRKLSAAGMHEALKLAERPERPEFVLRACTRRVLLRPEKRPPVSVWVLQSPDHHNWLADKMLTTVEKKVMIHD
assay name: Serotonin 5-HT7 radioligand binding ([3H]LSD)
test context: compounds screened at 1 μM; read-out: Inhibition of ligand binding, Ser. 5-HT7 (percent inhibition of specific binding)
Field: numeric (%). Do not append units.

Query :: Fill in: inhibition at 1 µM of CN1CCc2c(c3cc(F)ccc3n2CCc2nc(-c3ccccc3)cs2)C1 is ___
Result :: 90

Query :: Fill in: inhibition at 1 µM of CN1CCc2c(c3ccccc3n2CCc2noc(-c3ccccc3)n2)C1 is ___
Result :: 88

Query :: Fill in: inhibition at 1 µM of CN1CCc2c(c3cc(Cl)ccc3n2CCc2noc(-c3ccccc3)n2)C1 is ___
Result :: 90

Query :: Fill in: inhibition at 1 µM of Cc1ccc2c(c1)c1c(n2CCc2nc(-c3ccccc3)cs2)CCN(C)C1 is ___
Result :: 93

Query :: Fill in: inhibition at 1 µM of Cc1ccc2c(c1)c1c(n2CCc2noc(-c3ccccc3)n2)CCN(C)C1 is ___
Result :: 96

Query :: Fill in: inhibition at 1 µM of COc1ccc2c(c1)c1c(n2CCc2nc(-c3ccccc3)cs2)CCN(C)C1 is ___
Result :: 57
